Overview of reported Emax across a group of compounds:
systemName: glucokinase (GK), residues 12-465 of the human enzyme (Homo sapiens, UniProt P35557)
Construct: I.D. No. 1 corresponds to residues 12-465 of glucokinase; made in house; host or cells: E. coli DH10b-Tlr
Sequence (P35557 with tags, fused parts or gaps isoform P35557-2): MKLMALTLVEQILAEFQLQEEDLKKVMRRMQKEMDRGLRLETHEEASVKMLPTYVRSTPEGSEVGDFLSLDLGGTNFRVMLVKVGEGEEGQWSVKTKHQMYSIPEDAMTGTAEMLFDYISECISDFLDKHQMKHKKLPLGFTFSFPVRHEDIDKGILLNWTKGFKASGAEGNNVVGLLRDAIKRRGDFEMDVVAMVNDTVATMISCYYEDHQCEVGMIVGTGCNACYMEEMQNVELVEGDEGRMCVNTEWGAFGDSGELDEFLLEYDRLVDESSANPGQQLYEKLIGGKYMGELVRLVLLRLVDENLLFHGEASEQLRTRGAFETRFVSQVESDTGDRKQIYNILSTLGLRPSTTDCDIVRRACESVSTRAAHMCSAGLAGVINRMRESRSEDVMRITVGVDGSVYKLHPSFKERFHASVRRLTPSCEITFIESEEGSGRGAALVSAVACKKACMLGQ
methodSummary: Enzymatic glucokinase activity assay (KinaseGlo luminescence, ATP consumption)
Assay type: biochemical
statedConditions: calculated maximal gain in GK enzyme activity at a saturating concentration of the compound; 5 μM ATP, 5 mM Glucose; read-out: % ACTmax

These recorded examples may help you get a feel for the data.
Reported Emax for CC(=O)Nc1ccc(S(=O)(=O)N2CCN([C@@H](CC3CCCCC3)C(=O)Nc3nccs3)C(=O)C2)cc1 : what is it?
97.1 to 107%

Reported Emax for COc1ccc(S(=O)(=O)N2CCN([C@@H](CC3CCCCC3)C(=O)Nc3nccs3)C(=O)C2)cc1F : what is it?
108 to 119%

Reported Emax for O=C(Nc1nccs1)[C@H](CC1CCCCC1)N1CCN(S(=O)(=O)CCc2ccc(Cl)cc2)CC1=O : what is it?
≤ 74%

Reported Emax for CC(C)C[C@@H](C(=O)Nc1ncc(Cl)s1)N1CCN(S(=O)(=O)C2CC2)CC1=O : what is it?
≥ 119%

Reported Emax for O=C(Nc1nccs1)[C@H](CC1CCCCC1)N1CCN(S(=O)(=O)c2cccc(Br)c2)CC1=O : what is it?
108 to 119%

Reported Emax for COC(=O)c1c(C)oc(C)c1S(=O)(=O)N1CCN([C@@H](CC2CCCCC2)C(=O)Nc2nccs2)C(=O)C1 : what is it?
≤ 74%

Reported Emax for O=C(Nc1nccs1)[C@H](CC1CCCCC1)N1CCN(S(=O)(=O)c2cc(Cl)ccc2Cl)CC1=O : what is it?
108 to 119%

Reported Emax for O=C(Nc1nccs1)[C@H](CC1CCCCC1)N1CCN(S(=O)(=O)Cc2ccccc2)CC1=O : what is it?
97.1 to 107%

Others:
Reported Emax for COc1cccc(C[C@@H](C(=O)Nc2nccs2)N2CCN(S(=O)(=O)C3CC3)CC2=O)c1 : what is it?
74.1 to 97%
